meta.source: patent US20250296916A1

Reported AC1.4 is given for each of the following molecules.
Test system: rabbit skeletal myofibrils (approximately 90% fast fibers)
Experiment: Activation of fast skeletal myofibrils (PUMA coupled-enzyme ATPase assay)
Format: biochemical
Conditions: concentration at which the compound increased the enzymatic activity by 40%; calcium at pCa25; PM12 buffer pH 6.8
Number in µM, nothing else.

Examples with answers:
[
  {
    "Molecule": "CC[C@H](C)[C@H]1C(=O)Nc2cncnc2N1C(=O)c1cnn(C)c1 [Compound 94]",
    "AC1.4 (µM)": 1.66
  },
  {
    "Molecule": "CC[C@H](C)[C@H]1C(=O)Nc2cccnc2N1C(=O)c1cnn(C)c1 [Compound 93]",
    "AC1.4 (µM)": 1.73
  },
  {
    "Molecule": "CC[C@H](C)[C@H]1C(=O)Nc2ccccc2N1C(=O)NC1CCN(CCO)CC1 [Compound 130]",
    "AC1.4 (µM)": 2.13
  },
  {
    "Molecule": "CCC[C@H]1C(=O)Nc2ccccc2N1C(=O)c1ccc(NCC(F)(F)F)nc1 [Compound 34]",
    "AC1.4 (µM)": 2.59
  },
  {
    "Molecule": "CC[C@H](C)[C@H]1C(=O)Nc2ccccc2N1C(=O)CO [Compound 109]",
    "AC1.4 (µM)": 1.51
  }
]

Give the reported AC1.4 for CC[C@H](C)[C@H]1C(=O)Nc2ccccc2N1C(=O)N1CC(F)C1 [Compound 112] (system: rabbit skeletal myofibrils (approximately 90% fast fibers)).
1.01

Hi! What's the reported AC1.4 for CC(C)[C@H]1C(=O)Nc2cccnc2N1C(=O)c1ccc(=O)n(C)c1 [Compound 87] on rabbit skeletal myofibrils (approximately 90% fast fibers)?
2.15

# get_value(readout= AC1.4, system= rabbit skeletal myofibrils (approximately 90% fast fibers)) for CCC[C@H]1C(=O)Nc2ccccc2N1C(=O)c1cc2cccn2cn1 [Compound 70]
0.46
